system: Glucagon receptor (Homo sapiens)
Sequence (P47871 whole entry): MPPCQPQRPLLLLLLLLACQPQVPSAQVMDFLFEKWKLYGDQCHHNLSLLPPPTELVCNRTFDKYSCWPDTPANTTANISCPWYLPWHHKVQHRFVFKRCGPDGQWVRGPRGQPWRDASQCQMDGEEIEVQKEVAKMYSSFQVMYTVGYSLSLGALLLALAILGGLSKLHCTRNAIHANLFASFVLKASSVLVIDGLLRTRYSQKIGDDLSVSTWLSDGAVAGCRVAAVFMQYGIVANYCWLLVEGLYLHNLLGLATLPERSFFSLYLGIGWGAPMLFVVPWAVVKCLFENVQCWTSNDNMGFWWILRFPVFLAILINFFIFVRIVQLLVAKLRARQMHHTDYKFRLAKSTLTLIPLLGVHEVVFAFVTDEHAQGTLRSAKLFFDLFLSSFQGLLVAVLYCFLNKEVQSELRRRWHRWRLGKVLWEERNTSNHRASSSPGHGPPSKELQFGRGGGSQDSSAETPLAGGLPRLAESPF
assayProtocol: Antagonist activity against glucagon receptor
Type: functional
assayReadout: pIC50
Interpret pIC50 as the negative base-10 log of the concentration measured in mol/L.

Query: Value lookup for pIC50; key = `CC(C)c1cc(-c2ccc(Cl)cc2)[nH]c1-c1ccncc1`
Response: 7.49
